assay_text: Influence of the amount of NaCl on the distribution between oil phase and water phase (Example 5)
Format: physicochemical
study_conditions: NaCl 55.56 %
# Met = Distribution in [%] between oil phase and water phase after condensation: Oil phase below 90% (exclusive); Not met = Distribution in [%] between oil phase and water phase after condensation: Oil phase at/above 90%

**Query** Report whether reported Distribution in [%] between oil phase and water phase after condensation: Oil phase is lower than 90% (strictly) for CCCC(=O)OCC [ethyl butyrate]
**Result** Not met

**Query** Report whether reported Distribution in [%] between oil phase and water phase after condensation: Oil phase is lower than 90% (strictly) for CCCCCCOC(C)=O [hexyl acetate]
**Result** Not met

**Query** Report whether reported Distribution in [%] between oil phase and water phase after condensation: Oil phase is lower than 90% (strictly) for CC/C=C\CCO [cis-3-hexenol]
**Result** Met

**Query** Report whether reported Distribution in [%] between oil phase and water phase after condensation: Oil phase is lower than 90% (strictly) for CCCCCO
**Result** Met

**Query** Report whether reported Distribution in [%] between oil phase and water phase after condensation: Oil phase is lower than 90% (strictly) for CCC/C=C/C=O [trans-2-hexenal]
**Result** Met

**Query** Report whether reported Distribution in [%] between oil phase and water phase after condensation: Oil phase is lower than 90% (strictly) for CCCC(CC=O)OCC (centres unmarked)
**Result** Not met

**Query** Report whether reported Distribution in [%] between oil phase and water phase after condensation: Oil phase is lower than 90% (strictly) for CCCCCC(=O)O
**Result** Not met

**Query** Report whether reported Distribution in [%] between oil phase and water phase after condensation: Oil phase is lower than 90% (strictly) for CC(C)CCO
**Result** Met

**Query** Report whether reported Distribution in [%] between oil phase and water phase after condensation: Oil phase is lower than 90% (strictly) for CCCCOC(C)=O [butyl acetate]
**Result** Not met

**Query** Report whether reported Distribution in [%] between oil phase and water phase after condensation: Oil phase is lower than 90% (strictly) for CCCCCCCO
**Result** Not met

**Query** Report whether reported Distribution in [%] between oil phase and water phase after condensation: Oil phase is lower than 90% (strictly) for O=Cc1ccccc1
**Result** Met

**Query** Report whether reported Distribution in [%] between oil phase and water phase after condensation: Oil phase is lower than 90% (strictly) for CC(=O)OCCc1ccccc1 [phenylethyl acetate]
**Result** Not met

**Query** Report whether reported Distribution in [%] between oil phase and water phase after condensation: Oil phase is lower than 90% (strictly) for CC/C=C\CCOC(C)=O [cis-3-hexenyl acetate]
**Result** Not met

**Query** Report whether reported Distribution in [%] between oil phase and water phase after condensation: Oil phase is lower than 90% (strictly) for CCC(C)CO (centres unmarked)
**Result** Met

**Query** Report whether reported Distribution in [%] between oil phase and water phase after condensation: Oil phase is lower than 90% (strictly) for CCOC(=O)C(C)CC (centres unmarked) [ethyl 2-methyl butyrate]
**Result** Not met

**Query** Report whether reported Distribution in [%] between oil phase and water phase after condensation: Oil phase is lower than 90% (strictly) for CC/C=C/CCO [trans-3-hexenol]
**Result** Not met

**Query** Report whether reported Distribution in [%] between oil phase and water phase after condensation: Oil phase is lower than 90% (strictly) for CCC(C)COC(C)=O (centres unmarked) [2-methyl butyl acetate]
**Result** Not met

**Query** Report whether reported Distribution in [%] between oil phase and water phase after condensation: Oil phase is lower than 90% (strictly) for CCCCCCCCO
**Result** Not met

**Query** Report whether reported Distribution in [%] between oil phase and water phase after condensation: Oil phase is lower than 90% (strictly) for CCCCCCO
**Result** Not met
